IC50 for human GST-DYRK1A (Homo sapiens, UniProt Q13627) - collated from the literature.

Some molecules with recorded IC50:
N#Cc1c[nH]c2nc(Nc3ccc(C(=O)N4CCC(N5CCOCC5)CC4)c4c3OCCO4)nc(NC3CCCCC3)c12 :: 301 to 1000 nM
O=C(Nc1cnccn1)Nc1cccc2c1C1CC3(CCN1C2=O)SCCS3 (stereo not shown) :: > 10000 nM
COCCNc1cc(Nc2ccc(C(=O)N3CCC(N4CCOCC4)CC3)c3c2OCCO3)nc2[nH]cc(C(F)(F)F)c12 :: < 100 nM

Consider the record given below.
Prompt: Form entry - test system: human GST-DYRK1A (Homo sapiens, UniProt Q13627); read-out: IC50; molecule: CCNc1cc(Nc2ccc(C(=O)N3CCN(C4COC4)CC3)c3c2OCCO3)nc2[nH]cc(C(F)(F)F)c12
Response: < 100 nM

----------
pIC50: −log10 of the molar value.
pIC50 for human GST-DYRK1A (Homo sapiens) - collated from the literature.

Some molecules with recorded pIC50:
CCCCNc1nc(Nc2ccc(S(=O)(=O)N3CCC(N4CCOCC4)CC3)cc2OC)nc2[nH]cc(C(F)(F)F)c12 :: 6.00 to 6.52
N[C@H]1CC[C@H](Nc2ccnc3ccc(-c4c[nH]c5ncccc45)cc23)CC1 :: < 7.00
CC[C@H](CO)Nc1nc(NCc2ccc(-c3ccccn3)cc2)c2ncn(C(C)C)c2n1 :: 5.44
COc1cc(S(=O)(=O)N2CCC(N3CCOCC3)CC2)ccc1Nc1cc(NCCS(C)(=O)=O)c2cc[nH]c2n1 :: 6.00 to 6.52
COCCNc1cc(Nc2ccc(C(=O)N3CCC(N4CCOCC4)CC3)c3c2OCC3)nc2[nH]cc(C(F)(F)F)c12 :: > 7.00

Prompt: Give its pIC50 value. Item: CCNc1cc(Nc2ccc(C(=O)N3CCC(N(C)C)CC3)c3c2OCC3)nc2[nH]cc(C(F)(F)F)c12
Response: > 7.00

Prompt: Give its pIC50 value. Item: COCCNc1nc(Nc2ccc(C(=O)N3CCN(C4COC4)CC3)c3c2OCCO3)nc2[nH]cc(C(F)(F)F)c12
Response: > 7.00

Prompt: Give its pIC50 value. Item: Cc1n[nH]c2ncc(-c3cncc(N4CCN(C)CC4)n3)cc12
Response: < 6.00

Prompt: Give its pIC50 value. Item: O=C(NCc1cccnc1)c1cnc2[nH]cc(-c3cc(F)c4nccc(-c5cccnc5)c4c3)c2c1
Response: > 8.00

Prompt: Give its pIC50 value. Item: CN(C)c1cc(Nc2ccc(C(=O)N3CCC(N4CCOCC4)CC3)c3c2OCCO3)nc2[nH]cc(C(F)(F)F)c12
Response: 6.00 to 6.52

Prompt: Give its pIC50 value. Item: CC[C@@H](C)Nc1nc(Nc2ccc(S(C)(=O)=O)cc2OC)nc2[nH]cc(C(F)(F)F)c12
Response: 6.00 to 6.52

Prompt: Give its pIC50 value. Item: COc1cc(P2(=O)CCN(C3CC3)CC2)ccc1Nc1nc(NCC2CCCC2)c2c(C#N)c[nH]c2n1
Response: 6.00 to 6.52

Prompt: Give its pIC50 value. Item: O=C(c1ccc(Nc2nc(NC3CCCCC3)c3c(C(F)(F)F)c[nH]c3n2)c2c1CCO2)N1CCC(N2CCOCC2)CC1
Response: 6.00 to 6.52

Prompt: Give its pIC50 value. Item: CCCNc1cc(Nc2ccc(S(=O)(=O)N3CCOCC3)cc2OC)nc2[nH]cc(C#N)c12
Response: 6.00 to 6.52

Prompt: Give its pIC50 value. Item: COc1cc(S(C)(=O)=O)ccc1Nc1nc(NCC2CCCC2)c2c(C#N)c[nH]c2n1
Response: 6.00 to 6.52

Prompt: Give its pIC50 value. Item: CCCNc1nc(Nc2ccc(P3(=O)CCN(C4CC4)CC3)cc2OC)nc2[nH]cc(C#N)c12
Response: 6.00 to 6.52

Prompt: Give its pIC50 value. Item: CCNc1nc(Nc2cc(F)c(S(=O)(=O)N3CCC(N4CCOCC4)CC3)cc2OC)nc2[nH]cc(C(F)(F)F)c12
Response: 6.00 to 6.52

Prompt: Give its pIC50 value. Item: N#Cc1c[nH]c2nc(Nc3ccc(C(=O)N4CCOCC4)c4c3OCC4)nc(NCC3CCCC3)c12
Response: 6.00 to 6.52

Prompt: Give its pIC50 value. Item: CNc1cc(Nc2ccc(C(=O)N3CC[C@H](N4CCOCC4)C3)c3c2OCC3)nc2[nH]cc(C(F)(F)F)c12
Response: > 7.00

Prompt: Give its pIC50 value. Item: CN(CC1CCOCC1)c1cncc(-c2cnc3[nH]cc(F)c3c2)n1
Response: > 6.30

Prompt: Give its pIC50 value. Item: COCCNc1cc(Nc2ccc(S(=O)(=O)N3CCC(N4CCOCC4)CC3)cc2OC)nc2[nH]cc(Cl)c12
Response: 6.00 to 6.52

Prompt: Give its pIC50 value. Item: CCNc1cc(Nc2cc(F)c(S(=O)(=O)N3CCC(N4CCOCC4)CC3)cc2OC)nc2[nH]cc(C(F)(F)F)c12
Response: 6.00 to 6.52

Prompt: Give its pIC50 value. Item: COc1cc(S(=O)(=O)N2CCC(N3CCOCC3)CC2)ccc1Nc1cc(NC2CCCCC2)c2cc[nH]c2n1
Response: 6.00 to 6.52
